Sourced from patent US20220125891A1

biological target: ΔCTD_Reg1 (human Regnase-1 amino acids 1 to 546, FLAG tag on the N-terminal side, BirA recognition sequence … (human)); experiment: cell-based or functional assay
Sequence (Q5D1E8 1-546, stated change not applied): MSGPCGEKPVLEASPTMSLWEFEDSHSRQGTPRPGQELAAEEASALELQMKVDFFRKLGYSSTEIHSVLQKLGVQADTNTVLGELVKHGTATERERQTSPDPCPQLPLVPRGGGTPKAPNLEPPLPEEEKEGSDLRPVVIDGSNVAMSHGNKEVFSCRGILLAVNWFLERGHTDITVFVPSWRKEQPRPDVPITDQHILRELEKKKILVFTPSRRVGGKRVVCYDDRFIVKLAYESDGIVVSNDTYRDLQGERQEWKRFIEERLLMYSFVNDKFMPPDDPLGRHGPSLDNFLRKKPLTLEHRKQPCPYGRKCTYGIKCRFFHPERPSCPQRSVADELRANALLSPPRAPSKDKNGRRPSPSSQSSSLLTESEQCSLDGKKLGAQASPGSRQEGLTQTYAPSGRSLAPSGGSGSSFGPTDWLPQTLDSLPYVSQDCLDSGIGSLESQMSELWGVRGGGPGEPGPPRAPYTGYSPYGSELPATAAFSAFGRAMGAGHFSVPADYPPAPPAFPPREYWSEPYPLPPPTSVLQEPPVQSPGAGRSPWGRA
Positions of bridges follow the written chain, without caps; N, C: chain ends. Non-standard residues stand in square brackets, D forms with d. No end group written: not given here. NMeA = CN[C@@H](C)C(=O)O; dNMeA = CN[C@H](C)C(=O)O
Give IC50, phosphorylation by TBK1 for every item shown.
Give just the numeric value; µM need not be written.

## Task Record request: IC50, phosphorylation by TBK1 value, item [dNMeA]PNSSWFKIWD (lactam N-11) [PP6]
## Result 14.5

## Task Record request: IC50, phosphorylation by TBK1 value, item [NMeA]GYANSWYNIWD (lactam N-12) [PP2]
## Result 17.6

## Task Record request: IC50, phosphorylation by TBK1 value, item [NMeA]YIWDFFGDLD (lactam N-11) [PP4]
## Result 44.9

## Task Record request: IC50, phosphorylation by TBK1 value, item [NMeA]HSNAWYNIWD (lactam N-11) [PP5]
## Result 19.1

## Task Record request: IC50, phosphorylation by TBK1 value, item [dNMeA]KHASAWYRIWD (lactam N-12) [PP3]
## Result 5.7
